List of IC50 values.
test system: MOLT-4 cells; test: MOLT-4 cell viability using MTT assay; assay type: cell-based; conditions: Homo sapiens, MOLT-4, 48 h, 48 h exposure
I only need the number, in nM, no unit after it.

A selection of reference data follows.
{"SMILES CODE": "Cc1c(Nc2nc3ccccc3s2)nnc2c1CCCN2c1ccc(-c2cnn(CC34CC5(C)CC(C)(CC(CCCNCC[C@H](O)CO)(C5)C3)C4)c2C)c(C(=O)O)n1", "U": "nM", "IC50": 3.25}
{"SMILES CODE": "Cc1c(Nc2nc3ccccc3s2)nnc2c1CCCN2c1nc(C(=O)O)c(CCCOc2ccc(C#CCN3CCCCC3)cc2F)s1", "U": "nM", "IC50": 1.2}

Kindly review the next compound as well.
Query for MOLT-4 cells: what IC50 does the record show for CNCC#Cc1ccc(OCCCc2sc(N3CCCc4c3nnc(Nc3nc5ccccc5s3)c4C)nc2C(=O)O)c(F)c1 ?
0.987
